# Read-out: E-selectin (Homo sapiens)
# Method: BSK_LPS_Eselectin: BioMAP Diversity Plus: LPS Assay for Eselectin Biomarker Activity (AID 2283077)
# Applied conditions: primary human HUVEC with PBMC; actives raise or lower the signal
The source made the active and inactive calls. Rule for the calls: active = hit-call score of the fitted dose curve at least 0.9, where 1 is the maximum; inactive = score below 0.9.
Outcome codes: active, inactive

molecule=c1ccc(-c2ccccn2)nc1 class_name=inactive
molecule=COc1ccc2nc(N)sc2c1 class_name=inactive
molecule=CCO[Si](CCCN=C=O)(OCC)OCC class_name=inactive
molecule=CCCCNc1ccc(NCCCC)c2c1C(=O)c1ccccc1C2=O class_name=inactive
molecule=CCOc1nc(F)cc2nc(S(=O)(=O)Nc3c(Cl)cccc3C(=O)OC)nn12 class_name=inactive
molecule=c1ccc2c(c1)ccc1ncccc12 class_name=inactive
molecule=C/C=C\C/C=C/CCCCCCCCOC(C)=O class_name=active
molecule=CC(C)C(=O)C(C)C class_name=inactive
molecule="C=CC(=O)OCC(Br)CBr (stereo not given)" class_name=active
molecule=O=C(Nc1ccccc1SSc1ccccc1NC(=O)c1ccccc1)c1ccccc1 class_name=inactive
molecule=CCCCCCCCCCCCCCCC[N+](C)(C)CC class_name=active
molecule=CCCCCCCCc1ccc(Nc2ccc(CCCCCCCC)cc2)cc1 class_name=inactive
molecule=C=C[Si](OC(C)=O)(OC(C)=O)OC(C)=O class_name=inactive
molecule=O=C1CCCN1CCO class_name=inactive
molecule="CCCCC(CC)COC(=O)c1ccccc1O (stereo not given)" class_name=inactive

###

# Method: TOX21_p53_BLA_p2_viability: Viability Assessment in the Tox21 HCT-116 p53 Agonism Beta-lactamase Assay, Phase 2 (AID 2283591);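 note: compound exposure lasted 16 h at 37 °C; actives lower the ATP signal meaning cytotoxicity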
# From the text: TOX21_p53_BLA_p2 is a cell-based, single-readout assay that uses HCT116, a human intestinal cell line, […] in a 1536-well plate.TOX21_p53_BLA_p2_viability is an assay readout measuring cellular ATP content and detected with CellTiter-Glo Luciferase-coupled ATP quantitation.TOX21_p53_BLA_p2_viability used a type of viability reporter where loss-of-signal activity can be used to understand changes in the cell viability. […]
Records with an inconclusive call do not appear. The source made the active and inactive calls. Rule for the calls: active = hit-call score of the fitted dose curve at least 0.9, where 1 is the maximum; inconclusive = response in the unintended direction; inactive = score below 0.9.
Outcome codes: active, inactive

compound=O=C(O)c1ccccc1Nc1cccc(C(F)(F)F)c1 class_name=inactive
compound="CCCCC(CC)CCC(CC(C)C)OS(=O)(=O)O (stereo not given)" class_name=inactive
compound=O=C(C(Cl)Cl)N1CCOC12CCCCC2 class_name=inactive
compound=CCCNC(=O)NS(=O)(=O)c1ccc(Cl)cc1 class_name=inactive
compound=O=c1[nH]nc(-c2ccc([N+](=O)[O-])o2)o1 class_name=inactive
compound=C=C[C@](C)(O)CC[C@@H]1[C@@]2(C)CCCC(C)(C)[C@@H]2CC[C@@]1(C)O class_name=active
compound="O=C1C(N(CO)C(=O)NCO)N(CO)C(=O)N1CO (stereo not given)" class_name=inactive
compound=Nc1ccc(N=Nc2ccccc2)c(N)n1 class_name=inactive
compound=c1ccc(-c2ccccn2)nc1 class_name=inactive
compound=Cc1cccc(C(=O)O)c1 class_name=inactive

###

# Read-out: Tumor necrosis factor (Homo sapiens)
# Method: BSK_LPS_TNFa: BioMAP Diversity Plus: LPS Assay for Tumour Necrosis Factor alpha (TNFa) Biomarker Activity (AID 2283085)
# Applied conditions: primary human HUVEC with PBMC; actives raise or lower the signal
The source made the active and inactive calls. How the source made its calls: active means hit-call score of the fitted dose curve at least 0.9, where 1 is the maximum; inactive means score below 0.9.
Outcome codes: y = active, n = inactive

molecule=CCOc1nc(F)cc2nc(S(=O)(=O)Nc3c(Cl)cccc3C(=O)OC)nn12 class_name=n
molecule=C=C[Si](OC(C)=O)(OC(C)=O)OC(C)=O class_name=n
molecule="C#CC1(O)CC[C@H]2[C@@H]3CCC4=CCCC[C@@H]4[C@H]3CC[C@@]21C (stereo partly specified)" class_name=y
molecule=O=C(c1ccc(O)cc1)c1ccc(O)cc1O class_name=n
molecule=N#[N+]c1ccc2c(S(=O)(=O)[O-])cccc2c1O class_name=n
molecule=O=C(Nc1ccccc1SSc1ccccc1NC(=O)c1ccccc1)c1ccccc1 class_name=y
molecule=COCc1c(C(C)C)nc(C(C)C)c(/C=C/[C@@H](O)C[C@@H](O)CC(=O)O)c1-c1ccc(F)cc1 class_name=n
molecule=O=Nc1ccc(O)cc1 class_name=n
molecule="CCCCC(CC)COCC1CO1 (stereo unspecified)" class_name=n
molecule=C=CCOc1c(Br)cc(Br)cc1Br class_name=n
molecule=CC(C)C(=O)C(C)C class_name=n

###

# Method: ATG_FoxO_CIS: Attagene CIS-FACTORIAL HepG2 Assay for human Forkhead box O (FoxO) (AID 2282943)
# Applied conditions: HepG2 Attagene cis-reporter, FoxO element, mRNA; actives raise or lower the signal
Activity calls are given as the source filed them. Rule for the calls: active = hit-call score of the fitted dose curve at least 0.9, where 1 is the maximum; inactive = score below 0.9.
Outcome codes: active, inactive

compound=CC(=O)OCc1ccco1 class_name=inactive
compound=CC(=O)c1ccc[nH]1 class_name=inactive
compound="CCCCC(CC)CCC(CC(C)C)OS(=O)(=O)O (stereo not given)" class_name=inactive
compound=CCCCCCCCCCC=CC#N class_name=inactive
compound="O=C(OCC1CCC2OC2C1)C1CCC2OC2C1 (stereo not given)" class_name=inactive
compound=COCc1c(C(C)C)nc(C(C)C)c(/C=C/[C@@H](O)C[C@@H](O)CC(=O)O)c1-c1ccc(F)cc1 class_name=inactive
compound=N#CCc1ccc(Cl)cc1Cl class_name=inactive
compound=CCCNC(=O)NS(=O)(=O)c1ccc(Cl)cc1 class_name=inactive
compound=O=C(Nc1cccc(C(F)(F)F)c1)c1cc(Br)cc(Br)c1O class_name=inactive
compound=CC[C@H]1OC(=O)[C@H](C)[C@@H](O[C@H]2C[C@@](C)(OC)[C@@H](O)[C@H](C)O2)[C@H](C)[C@@H](O[C@@H]2O[C@H](C)C[C@H](N(C)C)[C@H]2O)[C@](C)(O)C[C@@H](C)C(=NOCOCCOC)[C@H](C)[C@@H](O)[C@]1(C)O class_name=inactive
compound=CC(C)(C)c1ccc(OC(=O)c2ccccc2O)cc1 class_name=inactive
compound=O=C(c1ccccc1)c1ccc(O)c(O)c1O class_name=inactive
compound=O=c1c2ccccc2oc2ccccc12 class_name=inactive
compound=O=C(O)CCCC[C@@H]1SC[C@@H]2NC(=O)N[C@@H]21 class_name=inactive
compound=[Cl][In]([Cl])[Cl] class_name=inactive
compound=[Cl][Bi]([Cl])([c]1ccccc1)([c]1ccccc1)[c]1ccccc1 class_name=active
compound=Cc1oncc1C(=O)Nc1ccc(C(F)(F)F)cc1 class_name=inactive
compound=C1=CCCC1 class_name=inactive
compound=Cc1ccc2c(c1)C(=O)c1ccccc1C2=O class_name=inactive
compound="Cc1ccc(C2OC[C@@H]3OC(c4ccc(C)cc4)O[C@H]([C@H](O)CO)[C@@H]3O2)cc1 (stereo not given in full)" class_name=inactive
compound=CCOC(=O)Cc1cccc2ccccc12 class_name=inactive
compound=NC(=O)OCC(COC(N)=O)c1ccccc1 class_name=inactive
compound=C=COCCCC class_name=inactive
compound=C(=CC=Nc1ccccc1)C=CNc1ccccc1 class_name=inactive
compound=O=C(O)c1cc(Cl)cc([N+](=O)[O-])c1Cl class_name=inactive

###

# Method: ATG_TGFb_CIS: Attagene CIS-FACTORIAL HepG2 Assay for human Transforming Growth Factor (TGF) (AID 2282967)
# Applied conditions: HepG2 Attagene CIS TGFb reporter, mRNA transcription; actives raise or lower the signal
The source made the active and inactive calls. How the source made its calls: active means hit-call score of the fitted dose curve at least 0.9, where 1 is the maximum; inactive means score below 0.9.
Outcome codes: 1 = active, -1 = inactive

compound=O=C(Oc1ccccc1)c1ccc2ccccc2c1O class_name=1
compound=CCCCCCCCCCOC(C)=O class_name=-1
compound=CCCc1ccc(OC)cc1 class_name=-1
compound=COCCCOCCCOC class_name=-1
compound="O=C1C(N(CO)C(=O)NCO)N(CO)C(=O)N1CO (configuration not stated)" class_name=-1
compound=CCN(Cc1cccc(S(=O)(=O)O)c1)c1ccc(C(=C2C=CC(=[N+](CC)Cc3cccc(S(=O)(=O)[O-])c3)C=C2)c2ccccc2)cc1 class_name=1
compound=Cc1ccccc1C class_name=-1

###

# Measurement target: Estrogen receptor (Homo sapiens)
# Method: ATG_ERa_TRANS: Attagene TRANS-FACTORIAL HepG2 Assay for human Estrogen Receptor alpha (ERa) (AID 2282970)
# Applied conditions: HepG2 Attagene TRANS ERa GAL4 reporter, mRNA
Results filed as inconclusive are left out. Active and inactive are the calls of the source. The calls were made as follows: active = hit-call score of the fitted dose curve at least 0.9, where 1 is the maximum; inconclusive = response in the unintended direction; inactive = score below 0.9.
Outcome codes: 1 for active, -1 for inactive

molecule=O=S(=O)(O)c1ccccc1C=Cc1ccc(-c2ccc(C=Cc3ccccc3S(=O)(=O)O)cc2)cc1 class_name=-1
molecule=CCCCNc1ccc(NCCCC)c2c1C(=O)c1ccccc1C2=O class_name=-1
molecule=COc1c2ccoc2cc2oc(=O)ccc12 class_name=-1
molecule=C=C(C)CCO class_name=-1
molecule=CC1=CC[C@H](C(C)C)C=C1 class_name=-1
molecule="C=CC(C)(CCC=C(C)C)OC(=O)C(C)C (configuration not stated)" class_name=1
molecule=CC(=O)OC(C)C class_name=-1
